As a worked illustration, we turn to IC50 data collected for TYK2 (Homo sapiens (Human), UniProt P29597).
OUTCOME_MEASURE: IC50

- Cc1cc(Nc2ncc(C)c(N3CC4(C3)CC4(F)F)n2)sn1: < 5 nM
- Cc1cc(Nc2ncc(C)c(N3CC(C)(CNC(=O)C4CCNCC4(F)F)C3)n2)sn1 (stereo not drawn): < 150 nM
- Cc1cc(Nc2ncc(C)c(N3CC(CC#N)(NC(=O)c4cc(F)cc(F)c4C)C3)n2)sn1: < 20 nM
- Cc1cc(Nc2ncc(C)c(N3CC(CC#N)(N4C[C@@H]5OCCO[C@@H]5C4)C3)n2)sn1 [E92a]: < 10 nM
- Cc1cc(Nc2ncc(C)c(N3CC(CC#N)(N4CCN5CC6(CC6)C[C@H]5C4)C3)n2)sn1 [E76a]: < 10 nM
- Cc1cc(Nc2ncc(C)c(N3CC(CC#N)(N4CCN(C5CC5)CC4)C3)n2)sn1: < 10 nM
- Cc1cnc(Nc2cnn(C)c2)nc1N1CC(CCC#N)(N2CCN3C[C@H](F)C[C@H]3C2)C1 [E168a]: < 20 nM
- CO[C@H]1C[C@H]2CN(C3(CC#N)CN(c4nc(Nc5cc(C)ns5)ncc4C)C3)CCN2C1 [E71a]: < 10 nM
- Cc1cc(Nc2ncc(C)c(N3CC(CC#N)(N4CCCN(C)CC4)C3)n2)sn1 [E52G]: < 50 nM

----------
pIC50: −log10 of the molar value.
Each entry below carries its measured pIC50, system: UniProtKB P29597.
OUTCOME_MEASURE: pIC50

* Cc1cc(Nc2ncc(C)c(N3CC(CC#N)(N4CCN5CCC[C@H]5C4)C3)n2)sn1 [E62a] | > 7.30
* Cc1cc(Nc2ncc(C)c(N3CC(CC#N)(N4CCN(CC(C)(C)F)CC4)C3)n2)sn1 [E52D] | > 7.70
* Cc1cc(Nc2ncc(C)c(N3CC(CC#N)(NCC4CN(C)C4)C3)n2)sn1 [E68a] | > 6.30
* [2H]C([2H])([2H])n1cc(Nc2ncc(C)c(N3CC(CC#N)(N4CCN5C[C@H](F)C[C@H]5C4)C3)n2)cn1 [E156a] | > 8.00
* Cc1cc(Nc2ncc(C)c(N3CC(C)(CNC(=O)C4CCN(C(=O)OC(C)(C)C)CC4(F)F)C3)n2)sn1 (stereo not drawn) [E284] | > 6.70
* Cc1cc(Nc2ncc(C)c(N3CC(CCF)(N4CCN5C[C@H](F)C[C@H]5C4)C3)n2)sn1 [E117-A] | > 8.00

----------
Values of IC50 reported for TYK2 (Homo sapiens (Human), UniProt P29597) appear below.
OUTCOME_MEASURE: IC50

* Cc1cc(Nc2ncc(C)c(N3CC(CC#N)(NC(=O)[C@@H]4CC4(F)F)C3)n2)sn1 | < 10 nM
* Cc1cc(Nc2ncc(C)c(N3CC(CC#N)(N4CCN5CCOC[C@@H]5C4)C3)n2)sn1 [E77a] | < 10 nM
* C#CC1(O)CN(c2nc(Nc3cc(C)ns3)ncc2C)C1 | < 5 nM
* Cc1cc(Nc2ncc(C)c(N3CC(CC#N)(N4CCN5CC(C)(C)C[C@H]5C4)C3)n2)sn1 [E111a] | < 10 nM
* Cc1cc(Nc2ncc(C)c(N3CC(CCF)(N4CCCCC4)C3)n2)sn1 [E116a] | < 10 nM
* Cc1cc(Nc2ncc(C)c(N3CC(CC#N)(NC(=O)c4cccc(F)c4)C3)n2)sn1 | < 10 nM
* Cc1cc(Nc2ncc(C)c(N3CC(CC#N)(N4CCN(C)C5(CC5)C4)C3)n2)sn1 | < 10 nM
* Cc1cc(Nc2ncc(C)c(N3CC(CC#N)(N4CCN(C)C(C)C4)C3)n2)sn1 (centres unmarked) | < 10 nM
* Cc1cc(Nc2ncc(C)c(N3CC(CC#N)(N4CCN(C)C5CC54)C3)n2)sn1 (centres unmarked) [E94a] | < 10 nM
* Cc1cc(Nc2ncc(C)c(N3CC(CC#N)(N4CCN5CCCC[C@H]5C4)C3)n2)sn1 [E80a] | < 10 nM
* Cc1cnc(Nc2ccc(CN(C)C)cc2)nc1N1CC(C)(NC(=O)c2cccc(F)c2)C1 | < 50 nM
* Cc1cc(Nc2ncc(C)c(N3CC(CCC#N)C3)n2)sn1 | < 10 nM
* Cc1cc(Nc2ncc(C)c(N3CC(O)(CC#N)C3)n2)sn1 [E114a] | < 10 nM
* Cc1cc(Nc2ncc(C)c(N3CC(CC#N)(N4CCN5CC6CC5(C6)C4)C3)n2)sn1 [E86a] | < 20 nM

These measurements were taken from patent US20240425496A1.
